B1: HDV Ribozyme (parent)
chain: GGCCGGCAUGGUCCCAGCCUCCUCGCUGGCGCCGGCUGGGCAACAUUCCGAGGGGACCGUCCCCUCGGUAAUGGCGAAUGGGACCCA

Variants of: B1
protocol: self-cleavage, relative activity (ratio to wild type); higher = more cleavage; co-transcriptional
property: self-cleavage

G17A G28C
0.0489
G2A A43C
0.0665
A43C C61A
0.306
C36G C63A
0.269
C57G G73U
0.464
C13U G54U
0.578
C26A U65G
0.646
C30A U72A
0.123
G28A G50U
0.132
U12A A78U
0.128
C48U G67A
0.818
C22U G82C
0.198
C21A C33A
0.026
C13U G53C
0.831
G50C G53A
0.665
G40U A56U
0.801
C13U A56C
0.677
A43U C84U
0.151
G25C A51U
0.148
U72G G80U
0.0963
G50U A51C
0.889
U37G U65G
0.0573

Reference for the values: the RNAGym collection of RNA variant scans (doi:10.7554/elife.80360)
